# Experimental Target: T1, FcγRIIIA (form not stated) (UniProt P08637 17-208, limits assumed)
# T1 construct: also called FcγRIIIA (ELISA)
# T1 sequence (P08637 17-208 F176V limits assumed, form in doubt): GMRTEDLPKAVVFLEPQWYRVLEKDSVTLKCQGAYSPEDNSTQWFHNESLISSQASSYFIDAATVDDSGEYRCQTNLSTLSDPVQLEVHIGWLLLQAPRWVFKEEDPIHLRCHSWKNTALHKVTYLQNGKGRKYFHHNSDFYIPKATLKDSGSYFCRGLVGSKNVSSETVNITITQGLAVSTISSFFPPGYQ
# Experiment Notes: ELISA
Readout Type: fold increase vs WT
Write the quantity with the unit trailing the number.

Problem: Look at this binder and give its reported fold increase vs WT. ch4-4-20 D221Y, M252I, A330G, A339T, T359N, V422I, H433L (antibody) heavy: ASTKGPSVFPLAPSSKSTSGGTAALGCLVKDYFPEPVTVSWNSGALTSGVHTFPAVLQSSGLYSLSSVVTVPSSSLGTQTYICNVNHKPSNTKVDKKVEPKSCYKTHTCPPCPAPELLGGPSVFLFPPKPKDTLIISRTPEVTCVVVDVSHEDPEVKFNWYVDGVEVHNAKTKPREEQYNSTYRVVSVLTVLHQDWLNGKEYKCKVSNKALPGPIEKTISKTKGQPREPQVYTLPPSRDELNKNQVSLTCLVKGFYPSDIAVEWESNGQPENNYKTTPPVLDSDGSFFLYSKLTVDKSRWQQGNIFSCSVMHEALLNHYTQKSLSLSPGK
Solution: 2.5 x
